test system: EKVX NSCLC; assay: NCI tumour cell line growth inhibition, 48 h
REPORTED PROPERTY: TGI

[
  {
    "COMPOUND": "CCN(CC)CCN(C(=O)C(C)(C)C)c1ccccc1N",
    "TARGET SYSTEM": "EKVX NSCLC",
    "RESULT": "> 100 µM"
  },
  {
    "COMPOUND": "CCOP(=O)(Nc1ccc2oc(=O)c3ccccc3c2c1)OCC",
    "TARGET SYSTEM": "EKVX NSCLC",
    "RESULT": "> 100 µM"
  }
]

**Q:** For CC1OC(OC2CCC3(C=O)C4CCC5(C)C(C6=CC(=O)OC6)CCC5(O)C4CCC3(O)C2)C(O)C(O)C1O (stereo unspecified) , what is its reported TGI?
**A:** 3.38e-05 µM

**Q:** Please do the same for O=c1cc(-c2ccccn2)[nH]c2ccc(Cl)cc12 as well.
**A:** > 100 µM

**Q:** Please do the same for CC(=O)OC1CC2C(=O)C(=O)C1(C)C2(C)C (stereo unspecified) as well.
**A:** > 100 µM

**Q:** Please do the same for COc1ccc(CCc2cc(OC)c(OC)c(OC)c2)cc1 as well.
**A:** 70 µM

Cited source for all entries: PubChem BioAssay (NCI)
